assay: adipocyte viability effects, profiling panel, cell-based, 3T3-L1 adipocytes, calcein-AM fluorescence, 48 h, basal (AID 1163); settings: 3T3-L1 adipocytes viability, higher = more signal; also: test concentration not given here
The label True is reserved for z-score strictly under 0.6; False covers values equal to or above it.

compound | classification
CO[C@H]1COC(=O)CC=C[C@H](C)[C@@H](OC)COC(=O)CC=C[C@@H]1C | True
CC(C)[Si](OCC[C@H]1O[C@]2(C(=O)N(Cc3ccccc3)c3ccccc32)[C@@H](C)[C@@H]1[Si](C)(C)O)(C(C)C)C(C)C | False
COCCOC(=O)N1C(=O)[C@@]2(c3cc(C#CCCO)ccc31)[C@H](c1ccc(O)cc1)N1[C@H](c3ccccc3)[C@H](c3ccccc3)OC(=O)[C@H]1[C@@H]2C(=O)Nc1nc2ccccc2s1 | False
CO[C@H]1COC(=O)[C@H](C)COC(=O)[C@H](Cc2ccccc2)NC(=O)CC=C[C@H]1C | True
C=CC[C@]1(C(=O)NCC(O)CO)N=C(c2ccc(OCCCO)cc2)O[C@H]1c1ccccc1 (some centres not stated) | False
CC/C=C/C(=O)N(C[C@@H]1CCCO1)[C@@H]1CC(C(=O)NCCO)=C[C@H](Oc2c(I)cc(CO)cc2OC)[C@H]1O | True
[N-]=[N+]=NCc1ccccc1C[C@]1(C(N)=O)N=C(c2ccc(OCCCO)cc2)O[C@H]1c1ccccc1CN=[N+]=[N-] | False

###

Catalogue of molecules with associated composite z-score
molecular target: Dickkopf-related protein 1 (Homo sapiens) (UniProt O94907); assay: DKK1 binders on small-molecule microarrays, primary screen, biochemical, small-molecule microarray, 635 nm fluorescence scan (AID 1106); conditions: DKK1 binding, higher = more signal;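 also: score merges emission near 667 nm with signal to noise over three replicate slides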
Sequence (O94907 whole entry, looked up): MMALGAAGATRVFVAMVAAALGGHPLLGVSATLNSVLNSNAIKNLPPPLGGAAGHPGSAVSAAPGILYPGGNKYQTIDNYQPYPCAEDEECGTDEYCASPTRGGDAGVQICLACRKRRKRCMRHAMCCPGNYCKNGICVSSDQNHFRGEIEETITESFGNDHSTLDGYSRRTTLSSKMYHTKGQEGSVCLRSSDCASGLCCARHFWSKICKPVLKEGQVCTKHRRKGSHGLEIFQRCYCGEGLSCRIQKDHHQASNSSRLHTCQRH

molecule | testTarget | composite z-score
CCOC(=O)C1=CC[C@@H](c2ccccc2)N(S(=O)(=O)c2ccc(C)cc2)[C@H]1C | Dickkopf-related protein 1 (Homo sapiens) (UniProt O94907) | 0.635
COCCOC(=O)N1C(=O)[C@@]2(c3ccccc31)[C@H](C(=O)N1CCc3cc(OC)c(OC)cc3C1)[C@H]1C(=O)O[C@H](c3ccccc3)[C@H](c3ccccc3)N1[C@@H]2c1ccccc1OCCO | Dickkopf-related protein 1 (Homo sapiens) (UniProt O94907) | 0.214
O=C1O[C@H](c2ccccc2)[C@H](c2ccccc2)N2[C@H]1[C@@H](C(=O)Nc1nc3ccccc3s1)[C@]1(C(=O)Nc3ccc(C#CC4=CCCCC4)cc31)[C@H]2c1ccccc1OCCO | Dickkopf-related protein 1 (Homo sapiens) (UniProt O94907) | 0.574
C=CCC(OC(C)=O)[C@@H]1[C@@H](N(Cc2ccc(-c3ccccc3)cc2)C(=O)c2ccc(C)cc2)c2cc(OCCCO)ccc2N1C(=O)c1ccc(-c2ccccc2)cc1 (stereo partly drawn) | Dickkopf-related protein 1 (Homo sapiens) (UniProt O94907) | -0.0546
COCCCNC(=O)[C@@H]1c2ccccc2C(=O)N(CC23CC4CC(CC(C4)C2)C3)[C@H]1c1ccc(CO)cc1 | Dickkopf-related protein 1 (Homo sapiens) (UniProt O94907) | 0.427
COc1ccc([Si](C)(C)[C@@H]2[C@@H](CCO)O[C@]3(C(=O)N(Cc4ccc(NC(=O)[C@H](C)O)cc4)c4ccccc43)[C@H]2C)cc1 | Dickkopf-related protein 1 (Homo sapiens) (UniProt O94907) | 0.0302
COCCOC(=O)N1C(=O)[C@@]2(c3cc(C#CC4=CCCCC4)ccc31)[C@H](c1ccc(O)cc1)N1[C@H](c3ccccc3)[C@H](c3ccccc3)OC(=O)[C@H]1[C@@H]2C(=O)N1CCCCCCC1 | Dickkopf-related protein 1 (Homo sapiens) (UniProt O94907) | 0.948
CN(C)C(=O)[C@@]1(Cc2ccccc2N=[N+]=[N-])N=C(c2ccc(OCCCO)cc2)O[C@H]1c1ccccc1CN=[N+]=[N-] | Dickkopf-related protein 1 (Homo sapiens) (UniProt O94907) | 0.4
C=C(COC)/C(=C/C[C@@H](OC(=O)c1ccncc1)c1ccc(OCCO)cc1)c1cc(C(=O)OC)ccc1OC | Dickkopf-related protein 1 (Homo sapiens) (UniProt O94907) | 0.214
CN(C)c1ccc(C(O)C2C=CC3C(=O)NC(=O)C3N2Nc2ccc(Cl)cc2Cl)cc1 (stereo not drawn) | Dickkopf-related protein 1 (Homo sapiens) (UniProt O94907) | -0.336
Cc1ccc(S[C@]2(C(=O)NC(C)C)CC(=O)N(C3Cc4ccccc4C3)[C@@H]2c2ccc(CO)cc2)cc1 | Dickkopf-related protein 1 (Homo sapiens) (UniProt O94907) | -1.2
C=C(C)[C@@H]1CC=C(C(O)C2C=CC3C(=O)NC(=O)C3N2Nc2ccccn2)CC1 (stereo partly drawn) | Dickkopf-related protein 1 (Homo sapiens) (UniProt O94907) | 2.16
COC(=O)C(CC#Cc1ccc2c(c1)[C@]1(C(=O)N2)[C@H](C(=O)N2CCCCCCC2)[C@H]2C(=O)O[C@H](c3ccccc3)[C@H](c3ccccc3)N2[C@@H]1c1ccc(O)cc1)C(=O)OC | Dickkopf-related protein 1 (Homo sapiens) (UniProt O94907) | -0.785
